src = ChEMBL document CHEMBL4339235

assay: Inhibition of Cobetia marina ALP using pNPP as substrate; conditions: read-out: IC50
Overview of reported IC50 across a group of compounds:
Quick note: number first, unit second.

Task: Please give the documented IC50 of O=C(O)c1nc(CO)c2cc[nH]c2c1O
Output: 100 µM

As a next step, examine the compound that follows.
Task: Return value of IC50 for input O=C(O)c1cc2[nH]ccc2c(CO)n1 , no commentary.
Output: 2 µM
